Experiment: chemical genetic growth profiling, strain panel (AID 1159580);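 further: tested at 20 µM; growth read once vehicle control cultures reached saturation at 30 °C; 1 = growth at the plate median or of vehicle wells; lower values mean less growth of the strain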
Conditions: S. cerevisiae deletion strains, growth OD, locus YKL101W, strain HSL1, hits give low values
Screen size: about 5,500 compounds; about 2,000 (36%) were called active. About 18% were inconclusive and are not listed. The list shows a part of the results.
Categories are defined by ranges of normalized growth, namely lo = under 0.8, mid = from 0.8 up to 0.9, hi = 0.9 and over

compound	label-class
O=C1/C(=C/c2cccs2)COc2ccccc21	mid
CS(=O)(=O)c1sc(C(=O)Sc2ccc(Cl)cc2)c2c1C=CCC2	lo
CC1C/C(=N/Nc2ccc(Br)cc2)c2cc(Cl)ccc2S1 (centres undefined)	lo
Cc1ccc(N2C(=O)CSC2c2ccc(Cl)c(Cl)c2)cc1Cl (centres undefined)	hi

---

Assay: chemical genetic growth profiling, strain panel (AID 1159580)
Settings: S. cerevisiae deletion strains, growth OD, locus YNL271C, strain bni1, hits give low values
Screen size: about 5,500 compounds; about 2,000 (36%) were called active. Not shown: some 18% with an inconclusive outcome. Some of the results follow.

compound	normalized growth
COc1cc2c(cc1O)C(Cc1ccc(O)cc1)N(C)CC2 (stereo not given)	1.01 (inactive)
CC1(C)C(O)CC(O)C2(C)C1CC(O)C1(C)C2CCC2(C)C(c3ccoc3)OC(=O)C3OC321 (stereo not given)	1.03 (inactive)
CCCCSP(=O)(SCCCC)SCCCC	0.998 (inactive)
O=c1cc(-c2ccccc2)oc2cc(O)c(O)c(O)c12	0.774 (active)
CO[C@]12C[C@@H](COC(=O)c3cncc(Br)c3)CN(C)[C@@H]1Cc1cn(C)c3cccc2c13	1.01 (inactive)
COC(=O)CCC(C)[C@H]1CCC2C3C(C[C@H](O)[C@@]21C)[C@@]1(C)CC[C@@H](O)C[C@H]1C[C@H]3O (stereo not given in full)	1.02 (inactive)
CC(CCC(=O)O)[C@H]1CCC2C3CC[C@@H]4C[C@H](O)CC[C@]4(C)C3C[C@H](O)[C@@]21C (stereo not given in full)	0.974 (inactive)
CN(C)C(=O)Nc1ccc(Cl)c(Cl)c1	1 (inactive)
COc1cc2c(cc1/C=C/C(=O)c1cc(OC)c(OC)cc1OC)OCO2	1.01 (inactive)
C[C@@H]1O[C@@H](O[C@H]2C[C@@H](O)[C@]3(CO)C4C(CC[C@]3(O)C2)[C@@]2(O)CC[C@H](C3=CC(=O)OC3)[C@@]2(C)C[C@H]4O)[C@H](O)[C@H](O)[C@H]1O (stereo not given in full)	0.985 (inactive)
C[C@]12C=CC(=O)C=C1CCC1C3C[C@@H](O)[C@](O)(C(=O)CO)[C@@]3(C)C[C@H](O)[C@@]12F (stereo not given in full)	0.971 (inactive)
OC1=Cc2c(O)cc(O)cc2OC1(O)c1ccc(O)c(O)c1 (stereo not given)	0.978 (inactive)
NS(=O)(=O)c1cc2c(cc1Cl)NC(C1CC3C=CC1C3)NS2(=O)=O (stereo not given)	1 (inactive)
COc1c(Cl)ccc(Cl)c1C(=O)O	1.01 (inactive)
COc1cc2c(cc1-c1cc3cc4ccoc4cc3oc1=O)OCO2	0.991 (inactive)
CSc1ccc2c(c1)N(CCC1CCCCN1C)c1ccccc1S2 (stereo not given)	1 (inactive)
COC(=O)CCC(C)C1CCC2C3CC[C@@H]4C[C@H](O)CC[C@]4(C)C3C[C@H](O)[C@]12C (stereo not given in full)	1.01 (inactive)
O=C(O)c1ccccc1C(=O)Nc1ccc(S(=O)(=O)Nc2nccs2)cc1	0.982 (inactive)
CC(CCC(=O)O)[C@H]1CCC2C3CC[C@@H]4CCCC[C@]4(C)C3CC[C@@]21C (stereo not given in full)	0.986 (inactive)
CC1(C)C(=O)C=C[C@@]2(C)C1CC(=O)[C@@]1(C)C3=CC(=O)O[C@@H](c4ccoc4)[C@]3(C)CCC12 (stereo not given in full)	1 (inactive)
CCCC(CCC)C(=O)O	0.942 (inactive)
COc1c2ccccc2nc2occc12	0.985 (inactive)
Cc1cc(O)c(C=O)c2c1C(=O)Oc1c(C)c(O)c3c(c1O2)C(O)OC3=O (stereo not given)	0.946 (inactive)
C[C@H](CCC(=O)O)[C@H]1CCC2C3C(CC[C@@]21C)[C@@]1(C)CC[C@@H](O)C[C@H]1C[C@@H]3O (stereo not given in full)	0.956 (inactive)
Cc1cc(C)cc(OCC2CNC(=O)O2)c1 (stereo not given)	1.02 (inactive)
CC12CC3CC(C)(C1)CC(N)(C3)C2	1.01 (inactive)
CN(C)CCC(c1ccc(Br)cc1)c1ccccn1 (stereo not given)	0.984 (inactive)
CC(CCC(=O)O)[C@H]1CCC2C3C[C@H](O)[C@@H]4C[C@H](O)CC[C@]4(C)C3CC[C@@]21C (stereo not given in full)	1.02 (inactive)
CC[C@H](CCC(C)[C@H]1CCC2C3CCC4C[C@@H](O)CC[C@]4(C)C3CC[C@@]21C)C(C)C (stereo not given in full)	1.01 (inactive)
CCCCC[C@H](CC(=O)NO)C(=O)N[C@H](C(=O)N1CCC[C@H]1CO)C(C)C	1.02 (inactive)

---

Listed next: entries and their corresponding normalized growth.
Assay: chemical genetic growth profiling, strain panel (AID 1159580);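 further: tested at 20 µM; growth read once vehicle control cultures reached saturation at 30 °C; 1 = growth at the plate median or of vehicle wells; lower values mean less growth of the strain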
Conditions: S. cerevisiae deletion strains, growth OD, locus YML016C, strain PPZ1, hits give low values
Among all 5,500 compounds or so, about 2,000 (36%) were called active. Another 18% or so got no clear call; they are omitted. Some of the results follow.

molecule	normalized growth
N[C@H](Cc1cc(I)c(Oc2ccc(O)c(I)c2)c(I)c1)C(=O)O	0.997
NC(Cc1ccc(F)cc1)C(=O)O (stereo unspecified)	1
NNCCc1ccccc1	0.989
N[C@@H](Cc1cc(I)c(Oc2ccc(O)c(I)c2)c(I)c1)C(=O)O	1.01
CCCC(C(=O)OCCN(CC)CC)(c1ccccc1)c1ccccc1	1.01
CNC(=O)Oc1ccc2c(c1)[C@]1(C)CCN(C)[C@@H]1N2C	1.01

---

Experiment: chemical genetic growth profiling, strain panel (AID 1159580);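 further: tested at 20 µM; growth read once vehicle control cultures reached saturation at 30 °C; 1 = growth at the plate median or of vehicle wells; lower values mean less growth of the strain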
Settings: S. cerevisiae deletion strains, growth OD, locus YDL134C, strain PPH21, hits give low values
Out of some 5,500 compounds screened, about 2,000 (36%) were called active. Roughly 18% stayed inconclusive and do not appear here. The list shows a part of the results.

compound	normalized growth
CCCC(C(=O)OCCN(CC)CC)(c1ccccc1)c1ccccc1	0.979
CC(CN1c2ccccc2Sc2cccnc21)N(C)C (stereo not drawn)	1.01
COC(=O)c1c(C)cc(OC(=O)c2c(C)c(Cl)c(O)c(C=O)c2O)c(C)c1O	0.994
O=c1[nH]cnc2[nH]ncc12	0.993
COc1cc([C@H]2Oc3cc([C@H]4Oc5cc(O)cc(O)c5C(=O)[C@@H]4O)ccc3O[C@@H]2CO)ccc1O	1.01
CCC(=O)c1ccc2c(c1)N(CC(C)N(C)C)c1ccccc1S2 (stereo not drawn)	0.96
N[C@H](Cc1cc(I)c(Oc2ccc(O)c(I)c2)c(I)c1)C(=O)O	1
CN[C@@H]1[C@H](OC2[C@H](O[C@H]3[C@H](O)[C@@H](O)[C@H](N=C(N)N)[C@@H](O)[C@@H]3N=C(N)N)O[C@@H](C)[C@]2(O)C=O)O[C@@H](CO)[C@H](O)[C@H]1O (stereo partly drawn)	1.01
O=C(O)CC(CC(=O)Nc1ccc(I)cc1F)c1ccc(C(F)(F)F)cc1 (stereo not drawn)	0.981
CC(CN1c2ccccc2Sc2ccccc21)N(C)C (stereo not drawn)	0.979
COC(=O)CCCOc1ccc(Cl)cc1Cl	0.998
O=C(O)CCOc1ccc(Cl)cc1	1
CNCCCN1c2ccccc2CCc2ccccc21	1.02
NC(Cc1ccc(F)cc1)C(=O)O (stereo not drawn)	1.01
CCCCSP(=O)(SCCCC)SCCCC	1.01
O=C1CSC(c2ccc(Cl)c(Cl)c2)N1c1ccc(F)cc1 (stereo not drawn)	0.886
Cc1cc(C)cc(OCC2CNC(=O)O2)c1 (stereo not drawn)	1.02
CCOC(=O)[C@H](CCc1ccccc1)N[C@@H](C)C(=O)N1Cc2ccccc2C[C@H]1C(=O)O	1
O=C(NCc1nc(-c2ccc(C(F)(F)F)cc2)no1)Nc1ccc(F)cc1F	0.857
CCN(CC)CCOC(=O)C(c1ccccc1)c1ccccc1	0.997
CN(C)CCOC(=O)COc1ccc(Cl)cc1	1.01
CC(=O)N=c1sc(S(N)(=O)=O)nn1C	1.02
N[C@@H](Cc1cc(I)c(Oc2cc(I)c(O)c(I)c2)c(I)c1)C(=O)O	1.03

---

Assay: chemical genetic growth profiling, strain panel (AID 1159580);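 further: tested at 20 µM; growth read once vehicle control cultures reached saturation at 30 °C; 1 = growth at the plate median or of vehicle wells; lower values mean less growth of the strain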
Conditions: S. cerevisiae deletion strains, growth OD, locus YEL003W, strain gim4
In all, about 5,500 compounds went through this assay and about 2,000 (36%) were called active. Not shown: some 18% with an inconclusive outcome. No stated cut-off is given here; in the data, active means normalized growth mostly below about 0.91 (no sharp cut-off); inconclusive means no clear call, values can overlap the other calls; inactive means mostly above about 0.92. This is one part of the list.
Possible outcomes: yes (1) for active, no (0) for inactive

chemical-string	label-class
CN1CCN(C2=Nc3ccccc3Oc3ccc(Cl)cc32)CC1	no (0)
O=c1cc(-c2ccccc2)oc2c(O)c(O)ccc12	no (0)
O=c1cc(-c2ccccc2)oc2cccc(O)c12	no (0)
CCC(=O)Nc1ccc(Cl)c(Cl)c1	no (0)
O=c1cc(-c2ccccc2)oc2cc(O)c(O)cc12	no (0)
c1ccc2nc(N3CCNCC3)ccc2c1	no (0)
O=c1cc(-c2ccccc2)oc2cc(O)c(O)c(O)c12	yes (1)
